Listed here: items and their measured pKd.
TARGET OR TEST SYSTEM: CDK7/CyclinH/MAT1 (Homo sapiens, UniProt P50613)
Construct: His
Sequence (P50613 whole entry): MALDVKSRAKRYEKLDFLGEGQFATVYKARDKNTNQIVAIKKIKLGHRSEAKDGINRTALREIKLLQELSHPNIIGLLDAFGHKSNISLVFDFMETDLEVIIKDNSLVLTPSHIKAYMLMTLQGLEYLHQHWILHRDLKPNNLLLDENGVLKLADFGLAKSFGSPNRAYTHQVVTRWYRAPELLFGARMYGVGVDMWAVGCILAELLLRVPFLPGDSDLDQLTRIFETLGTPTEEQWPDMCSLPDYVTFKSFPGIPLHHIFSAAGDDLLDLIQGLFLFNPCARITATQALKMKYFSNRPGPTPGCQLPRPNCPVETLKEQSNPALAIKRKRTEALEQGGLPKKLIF
Sequence (P51946 whole entry partner): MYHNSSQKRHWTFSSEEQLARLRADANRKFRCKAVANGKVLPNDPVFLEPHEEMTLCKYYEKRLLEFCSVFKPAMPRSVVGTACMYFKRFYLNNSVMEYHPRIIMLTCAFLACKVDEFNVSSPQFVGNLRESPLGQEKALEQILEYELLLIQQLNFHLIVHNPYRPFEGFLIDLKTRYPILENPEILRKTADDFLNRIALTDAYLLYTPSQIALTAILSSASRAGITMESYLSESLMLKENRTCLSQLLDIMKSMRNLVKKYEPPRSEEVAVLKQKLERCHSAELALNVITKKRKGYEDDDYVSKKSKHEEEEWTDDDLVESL
Sequence (P51948 whole entry partner): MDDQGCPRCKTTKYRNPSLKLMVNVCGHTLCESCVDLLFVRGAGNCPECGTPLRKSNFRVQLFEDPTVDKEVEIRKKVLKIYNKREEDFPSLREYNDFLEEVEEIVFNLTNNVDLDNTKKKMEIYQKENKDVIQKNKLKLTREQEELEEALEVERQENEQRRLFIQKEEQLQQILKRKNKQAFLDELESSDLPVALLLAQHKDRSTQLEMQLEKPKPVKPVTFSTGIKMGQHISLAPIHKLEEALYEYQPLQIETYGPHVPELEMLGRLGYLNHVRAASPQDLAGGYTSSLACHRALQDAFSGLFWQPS
ASSAY INFO: LanthaScreen Eu Kinase Binding Assay, CDK7
CONDITION INFO: tracer 236, read-out: CDK7 (activity range), Kd
pKd: −log10 of the molar value.

Answered examples (4):
NS(=O)(=O)Cc1cccc(Nc2ncnc(N3CCc4ncncc4C3)n2)c1	< 5.00
NS(=O)(=O)Cc1cccc(Nc2ncnc(N3CCC[C@@H]3C(F)(F)F)n2)c1	< 5.00
NS(=O)(=O)Cc1cccc(Nc2ncnc(N3CCc4ncsc4C3)n2)c1	5.00 to 6.00
COC(=O)[C@H]1CCCCN1c1ncnc(Nc2cccc(CS(N)(=O)=O)c2)n1	< 5.00

Please examine the following record next.
IN: Report pKd for NS(=O)(=O)Cc1cccc(Nc2ncnc(N3CCCn4nccc43)n2)c1 tested on CDK7/CyclinH/MAT1 (Homo sapiens, UniProt P50613).
OUT: 6.00 to 7.00

====

TARGET OR TEST SYSTEM: CDK4/CyclinD1 (Homo sapiens)
Sequence (P11802 whole entry): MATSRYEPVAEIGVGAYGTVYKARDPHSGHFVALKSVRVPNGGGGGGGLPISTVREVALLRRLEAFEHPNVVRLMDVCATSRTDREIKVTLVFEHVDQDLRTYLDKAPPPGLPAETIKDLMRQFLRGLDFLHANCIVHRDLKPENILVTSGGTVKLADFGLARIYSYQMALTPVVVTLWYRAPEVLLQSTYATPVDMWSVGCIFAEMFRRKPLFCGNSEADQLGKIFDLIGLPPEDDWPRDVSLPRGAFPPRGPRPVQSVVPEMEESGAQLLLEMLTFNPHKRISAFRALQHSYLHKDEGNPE
Sequence (P24385 whole entry partner): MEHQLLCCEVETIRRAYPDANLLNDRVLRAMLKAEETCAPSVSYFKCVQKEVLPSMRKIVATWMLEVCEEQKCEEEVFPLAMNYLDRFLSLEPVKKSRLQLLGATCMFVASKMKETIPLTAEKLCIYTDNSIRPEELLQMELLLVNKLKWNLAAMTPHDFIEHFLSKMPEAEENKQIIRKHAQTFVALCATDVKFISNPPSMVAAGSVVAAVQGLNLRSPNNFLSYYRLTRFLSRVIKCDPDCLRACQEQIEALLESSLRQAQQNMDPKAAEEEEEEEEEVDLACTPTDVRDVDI
ASSAY INFO: Lance Ultra KinaSelect Assay, CDK4
CONDITION INFO: ATP 90 μM; read-out: CDK4 LANCE assay (activity range), IC50
pIC50: −log10 of the molar value.
MEASURED ENDPOINT: pIC50

Answered examples (4):
NS(=O)(=O)Cc1cccc(Nc2ncnc(N3Cc4cn[nH]c4C3)n2)c1	< 5.00
COC[C@H]1CCCN1c1ncnc(Nc2cccc(CS(N)(=O)=O)c2)n1	< 5.00
NS(=O)(=O)Cc1cccc(Nc2ncnc(N3CCCCC3)n2)c1	< 5.00
NS(=O)(=O)Cc1cccc(Nc2ncnc(N3CCc4ncccc4C3)n2)c1	< 5.00

IN: Tell me the measured pIC50 of NS(=O)(=O)Cc1cccc(Nc2ncnc(N3CCCC3c3ccccc3)n2)c1 (racemic) , please.
OUT: < 5.00

IN: Tell me the measured pIC50 of CN(C)CCC1CCCCN1c1ncnc(Nc2cccc(CS(N)(=O)=O)c2)n1 (racemic) , please.
OUT: < 5.00

IN: Tell me the measured pIC50 of NS(=O)(=O)Cc1cccc(Nc2ncnc(N3CCCn4nccc43)n2)c1 , please.
OUT: 5.00 to 6.00

====

TARGET OR TEST SYSTEM: CDK2/CyclinA (Homo sapiens)
Construct: GST
ASSAY INFO: LanthaScreen Eu Kinase Binding Assay, CDK2
CONDITION INFO: tracer 236, read-out: CDK2 (activity range), Kd
Protocol: This protocol describes how the LanthaScreen Eu Kinase Binding Assay was performed to determine dissociation constants (Kd) of compounds of general formula (I) and CDK/Cyclin complexes. […] Binding of the tracer to the kinase is detected using a Eu-labeled antibody. […] The compounds of general formula (I) summarized in Table 1 were diluted from a 10 mM DMSO stock solution 1:10 in a total volume of 15 μL DMSO. […] Positive and negative controls were calculated from at least 8 different sample wells. […]
Listed here: items and their measured Kd.

COC[C@@H]1CCCN1c1ncnc(Nc2cccc(CS(N)(=O)=O)c2)n1	> 10000 nM
NS(=O)(=O)Cc1cccc(Nc2ncnc(N3Cc4ccncc4C3)n2)c1	100 to 1000 nM
NS(=O)(=O)Cc1cccc(Nc2ncnc(N3Cc4cn[nH]c4C3)n2)c1	1000 to 10000 nM

IN: Report Kd for NS(=O)(=O)Cc1cccc(Nc2ncnc(N3CCc4ncccc4C3)n2)c1 tested on CDK2/CyclinA (Homo sapiens).
OUT: 100 to 1000 nM

Data credit: patent US9226929B2
